Data origin, for the record: patent US20150191469A1

System: HIV
test: MT4 assay: antiviral HIV activity (cell protection, cell titer glo readout at 96 hours)
Format: cell-based
condition-context: Human immunodeficiency virus 1, MT4, 96 h, MT4 cells, cell titer glo readout at 96 hours, 10 point dose response; read-out: HIV MT4 Assay IC50
Procedure: […] Luciferase activity was measured 96 hours later by adding a cell titer glo (Promega, Madison, Wis.). […] Under the same condition, cytotoxicity of the compounds was determined using cell titer Glo™ (Promega, Madison, Wis.). […]
pIC50: −log10 of the molar value.

compound: COCCNC(=O)c1cc2c(-c3cc(F)c4c(c3C)CCCO4)c([C@H](OC(C)(C)C)C(=O)O)c(C)nc2n1C
pIC50: 7.31

compound: Cc1nc2c(cc(-c3cc(NCCC(C)(C)C)ncn3)n2C)c(-c2cc(F)c3c(c2C)CCCO3)c1[C@H](OC(C)(C)C)C(=O)O
pIC50: 7.82

compound: Cc1nc2c(cc(C(=O)NCCN3CCCC3)n2C)c(-c2cc(F)c3c(c2C)CCCO3)c1[C@H](OC(C)(C)C)C(=O)O
pIC50: 6.00

compound: Cc1nc2c(cc(-c3ccnc(C4=CCN(C)CC4)c3)n2C)c(-c2cc(F)c3c(c2C)CCCO3)c1[C@H](OC(C)(C)C)C(=O)O (atropisomer, axis not shown)
pIC50: 7.75

compound: Cc1nc2c(cc(-c3nc(N4CCN(C(=O)N5CCCCC5)CC4)ns3)n2C)c(-c2cc(F)c3c(c2C)CCCO3)c1[C@H](OC(C)(C)C)C(=O)O
pIC50: 8.29

====

Test system: HIV
test: MT4 assay: antiviral HIV activity (cell protection, cell titer glo readout at 96 hours)
Format: cell-based
condition-context: Human immunodeficiency virus 1, MT4, 96 h, MT4 cells, cell titer glo readout at 96 hours, 10 point dose response; read-out: HIV MT4 Assay IC50
Protocol: […] Luciferase activity was measured 96 hours later by adding a cell titer glo (Promega, Madison, Wis.). […] Under the same condition, cytotoxicity of the compounds was determined using cell titer Glo™ (Promega, Madison, Wis.). […]
pIC50: −log10 of the molar value.
Lab note: anything with pIC50 at or over 8 counts as yes (1); the rest go in no (0).

compound: Cc1nc2c(cc(CCC(=O)N(C)c3ccc4c(cnn4C)c3)n2C)c(-c2cc(F)c3c(c2C)CCCO3)c1[C@H](OC(C)(C)C)C(=O)O
target-system: HIV
group-label: no (0)

compound: Cc1nc2c(cc(-c3ccnc(N4CCN(c5ccccc5)CC4)c3)n2C)c(-c2cc(F)c3c(c2C)CCCO3)c1[C@H](OC(C)(C)C)C(=O)O (atropisomer, axis not shown)
target-system: HIV
group-label: no (0)

compound: Cc1nc2c(cc(-c3ccnc(-c4ccc5c(cnn5C5CC5)c4)c3)n2C)c(-c2cc(F)c3c(c2C)CCCO3)c1[C@H](OC(C)(C)C)C(=O)O (atropisomer, axis not shown)
target-system: HIV
group-label: yes (1)

compound: Cc1nc2c(cc(/C=C/C(=O)NCCC(C)(C)C)n2C)c(-c2cc(F)c3c(c2C)CCCO3)c1[C@H](OC(C)(C)C)C(=O)O
target-system: HIV
group-label: no (0)

compound: Cc1nc2c(cc(-c3nnc(N4CCN(C(C)C)CC4)o3)n2C)c(-c2cc(F)c3c(c2C)CCCO3)c1[C@H](OC(C)(C)C)C(=O)O
target-system: HIV
group-label: yes (1)
